Target: RNF213 (∆N338) (Mus musculus, UniProt E9Q555)
Construct: N-terminal 338 residues deleted (∆N338), recombinant; biotin UBE2L3~Ub activity-based probe as read-out
Test: activation of RNF213 labelling by biotin UBE2L3~Ub activity-based probe, blot quantification
observation type: EC50 (µM)
Please reply with the bare figure in µM and do not write the unit itself.

Ask: Record request: EC50 value, item "Nc1ncnc2c1ncn2[C@@H]1O[C@H](COP(=O)(O)OP(=O)(O)OP(O)(O)=S)[C@@H](O)[C@H]1O"
Result: 85
